pKd values for the binders below.
Study system: T1, cyno PAI-1 captured on immobilized human vitronectin (cynomolgus monkey; human, UniProt P04004 20-478, limits assumed)
T1 construct: non-covalent complex formed on the chip; also called cPAI-1/Vn
T1 sequence (chain, as listed by the source limits assumed, chain 1 of 2): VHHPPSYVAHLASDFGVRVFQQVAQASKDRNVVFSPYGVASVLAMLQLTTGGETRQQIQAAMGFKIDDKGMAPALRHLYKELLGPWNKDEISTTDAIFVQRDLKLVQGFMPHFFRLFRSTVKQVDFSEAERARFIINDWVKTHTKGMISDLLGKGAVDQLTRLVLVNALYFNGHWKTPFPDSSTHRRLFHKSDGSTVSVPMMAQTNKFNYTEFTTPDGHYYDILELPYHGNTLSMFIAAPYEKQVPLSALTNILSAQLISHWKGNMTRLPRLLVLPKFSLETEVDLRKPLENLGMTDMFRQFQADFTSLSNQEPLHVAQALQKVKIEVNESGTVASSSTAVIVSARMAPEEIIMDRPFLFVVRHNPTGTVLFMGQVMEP
T1 sequence (P04004 20-478 limits assumed, chain 2 of 2): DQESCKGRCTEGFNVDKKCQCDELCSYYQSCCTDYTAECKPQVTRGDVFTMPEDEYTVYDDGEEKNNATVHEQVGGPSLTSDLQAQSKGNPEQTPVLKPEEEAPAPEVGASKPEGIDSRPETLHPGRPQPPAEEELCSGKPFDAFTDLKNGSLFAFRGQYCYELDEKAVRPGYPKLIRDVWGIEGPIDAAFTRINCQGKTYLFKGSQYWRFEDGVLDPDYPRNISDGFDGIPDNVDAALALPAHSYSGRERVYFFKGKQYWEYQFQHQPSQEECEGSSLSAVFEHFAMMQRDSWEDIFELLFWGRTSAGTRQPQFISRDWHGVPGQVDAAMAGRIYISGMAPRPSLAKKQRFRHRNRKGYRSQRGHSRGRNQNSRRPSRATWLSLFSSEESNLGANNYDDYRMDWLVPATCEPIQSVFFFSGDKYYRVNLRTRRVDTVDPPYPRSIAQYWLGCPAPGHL
Protocol: Biacore, cPAI-1 on vitronectin chip, 1:1 model
pKd: −log10 of the molar value.

# Binder, pKd
data = [
    ("A44-hv5 (antibody, V domains shown, humanized A44, HEK293; constant regions as for A44-hv1; also called LC2 x HC2b; variant 5) VH: EMTLKESGPTLVKPTQTLSLTCSVTGDSMTQGYWNWIRKFPGKALEYMGYITYSGSTYYNPSLKGRISITRNTSKNQYYLTLSSVTTVDTATYYCARWHYGSPYYFDYWGQGTTLTVSS VL: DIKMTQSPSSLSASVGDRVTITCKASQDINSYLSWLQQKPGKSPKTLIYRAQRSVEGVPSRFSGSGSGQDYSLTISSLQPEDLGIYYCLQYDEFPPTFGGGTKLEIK", 10.49),
    ("A44 (antibody, mouse IgG1, V domains shown, mouse IgG1/kappa; also called mA44; A44 parental) VH: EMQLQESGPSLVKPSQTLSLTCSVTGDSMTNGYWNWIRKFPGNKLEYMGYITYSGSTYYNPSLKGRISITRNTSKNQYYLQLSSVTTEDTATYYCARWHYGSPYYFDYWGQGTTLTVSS VL: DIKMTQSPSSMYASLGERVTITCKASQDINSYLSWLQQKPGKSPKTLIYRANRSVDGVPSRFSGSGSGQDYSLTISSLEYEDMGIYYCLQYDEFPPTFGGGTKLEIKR", 10.16),
    ("A44-hv14 (antibody, V domains shown, humanized A44, HEK293; constant regions as for A44-hv1; also called LC4 x HC5b; variant 14) VH: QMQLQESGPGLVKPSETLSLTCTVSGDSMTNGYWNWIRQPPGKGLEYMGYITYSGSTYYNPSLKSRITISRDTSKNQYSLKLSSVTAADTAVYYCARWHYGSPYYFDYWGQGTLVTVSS VL: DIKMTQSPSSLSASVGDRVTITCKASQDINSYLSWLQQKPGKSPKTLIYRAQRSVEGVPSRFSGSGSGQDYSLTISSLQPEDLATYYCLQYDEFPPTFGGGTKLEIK", 10.41),
    ("A44-hv6 (antibody, V domains shown, humanized A44, HEK293; constant regions as for A44-hv1; also called LC3 x HC3; variant 6) VH: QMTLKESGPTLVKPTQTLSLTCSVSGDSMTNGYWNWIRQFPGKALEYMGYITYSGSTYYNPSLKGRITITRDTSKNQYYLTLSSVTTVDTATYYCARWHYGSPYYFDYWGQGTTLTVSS VL: DIKMTQSPSSLSASVGDRVTITCKASQDINSYLSWLQQKPGKSPKTLIYRANRSVDGVPSRFSGSGSGQDYSLTISSLQPEDLATYYCLQYDEFPPTFGGGTKLEIK", 11.30),
    ("A44-hv12 (antibody, V domains shown, humanized A44, HEK293; constant regions as for A44-hv1; also called LC4 x HC3; variant 12) VH: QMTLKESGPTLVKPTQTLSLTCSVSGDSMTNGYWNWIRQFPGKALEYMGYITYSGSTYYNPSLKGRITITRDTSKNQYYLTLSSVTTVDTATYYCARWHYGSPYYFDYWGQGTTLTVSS VL: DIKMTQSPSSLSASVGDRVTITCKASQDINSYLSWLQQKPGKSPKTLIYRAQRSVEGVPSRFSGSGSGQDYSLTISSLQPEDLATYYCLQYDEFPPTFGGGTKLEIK", 10.24),
    ("A44-hv9 (antibody, V domains shown, humanized A44, HEK293; constant regions as for A44-hv1; also called LC5b x HC5b; variant 9) VH: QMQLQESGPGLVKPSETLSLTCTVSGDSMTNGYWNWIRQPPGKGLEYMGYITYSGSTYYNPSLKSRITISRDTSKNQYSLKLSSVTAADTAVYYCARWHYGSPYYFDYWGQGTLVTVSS VL: DIQMTQSPSSLSASVGDRVTITCKASQDINSYLSWLQQKPGKAPKTLIYRANRSVDGVPSRFSGSGSGQDYTFTISSLQPEDIATYYCLQYDEFPPTFGGGTKVEIK", 10.67),
]
